Reported pIC50 is given for each of the following sequences.
# ASSAYED TARGET: A*6802 (Homo sapiens, UniProt P04439, A269V/D140Y/D185E/E176V/E277Q/E87N/F33Y/G231S/I121R/I166T/I218V/L180W/L300P/L318F/N151K/P208A/P217A/Q86R/R138H/R169H/S129P/T345S/V36M)
# TEST METHOD NOTES: biochemical
# Format: binding
No end group written: not given here.
Quick note: pIC50 means taking -log10 of the concentration in moles per liter.

Consider the following illustrative entries.
# BIOPOLYMER SEQUENCE, pIC50
data = [
    ("LIQPYSIYA [Peptide 86.0202]", 5.48),
    ("LLTFWNPPTTV [Peptide 9013.0259]", 5.12),
    ("IQNDTGFYV [Peptide 9013.0035]", 5.35),
]

The sequence listed as YTNWSEIYI [Peptide 1578.56] has a reported pIC50 of 8.30

The sequence listed as ALYWYRTGI [Peptide 86.0181] has a reported pIC50 of 5.31

The sequence listed as QLSTQELFI [Peptide 9013.0057] has a reported pIC50 of 5.09

* * *

# ASSAYED TARGET: DR1 (DRB1*0101) (Homo sapiens, UniProt P01903+P01911, A100R/D57E/F55L/F60I/F76Y/I96L/L162R/M171V/P40L/Q125E/R42F/V115G/Y59C)
# TEST METHOD NOTES: biochemical
# Format: binding
No end group written: not given here.
Note that class boundaries on IC50 are lower (below 60 nM), middle (60 nM to below 1000 nM), upper (1000 nM or more)

Task item: Which IC50 category applies to TPEWIDRLTVLQHSF [Peptide 89.0069] here?
Reply: upper

Task item: Which IC50 category applies to ILLYGAANTGKSLFG [Peptide 89.0018] here?
Reply: middle

Task item: Which IC50 category applies to GVNHQHLPARRAEPQ [Peptide 1543.05] here?
Reply: middle

Task item: Which IC50 category applies to DMKLRLSASPETHLD [Peptide 9014.0121] here?
Reply: middle

Task item: Which IC50 category applies to EVHVGGQVIVCPTSI [Peptide 89.0184] here?
Reply: upper

Task item: Which IC50 category applies to CWMIDSEARPRFREL [Peptide 9014.0219] here?
Reply: lower

* * *

# ASSAYED TARGET: A*3301 (Homo sapiens, UniProt P04439, A270S/D185E/E176V/E277Q/E87N/F33T/G231S/H175R/I121M/I218V/I322F/K168Q/K210R/L300P/L318F/M331R/P217A/Q86R/Q94H/R138Q/T323A/T345S/T97I/V358M/Y195H)
# TEST METHOD NOTES: biochemical
# Type: binding
No end group written: not given here.
Field: label. Allowed values: Fulfilled (IC50 < 500 nM) or Not fulfilled (IC50 >= 500 nM).

Task item: Does the reported IC50 of the following sequence sit strictly below 500 nM? YVMAGVGSPK [Peptide 9012.0253]
Reply: Fulfilled

* * *

# ASSAYED TARGET: DRB3*0101 (Homo sapiens, UniProt P01903+P79483)
# TEST METHOD NOTES: biochemical
# Type: binding
No end group written: not given here.
OBSERVABLE: IC50

The sequence listed as SADDLRAFQQLFLNT [Peptide 1543.07] has a reported IC50 of > 20 µM

The sequence listed as TTPIIHKLGDRNSLK [Peptide 1601.17] has a reported IC50 of 11 µM

* * *

# ASSAYED TARGET: DRB1*0802 (Homo sapiens, UniProt P01903+P01911, A100R/A103L/A169T/F76Y/H45Y/I96F/K41T/L162R/M171V/P40S/Q125H/Q178H/Q39Y/Q99D/R218S/R42G/S66Y/V115G/W38E)
# TEST METHOD NOTES: biochemical
# Type: binding
No end group written: not given here.
OBSERVABLE: IC50

Consider the following illustrative entries.
# BIOPOLYMER SEQUENCE, IC50
records = [
    ("YKTLFVDVTSTYHWT [Peptide 90.0241]", "14.1 µM"),
    ("QMMLETLNNTEYKNE [Peptide 1601.22]", "> 20 µM"),
    ("SWGMVVLLLVRYKCG [Peptide 89.0005]", "> 20 µM"),
    ("ACSWGMVMLMLVRFK [Peptide 89.0043]", "2.9 µM"),
    ("ISEVYGDTPEWIQRQ [Peptide 90.0035]", "> 20 µM"),
    ("SQLLNIPETHMVIEP [Peptide 89.0102]", "> 20 µM"),
]

The sequence listed as DNDVMDDSEIAYKYA [Peptide 90.0069] has a reported IC50 of > 20 µM

The sequence listed as LIRLENAILFTAREH [Peptide 90.0002] has a reported IC50 of 11.7 µM

The sequence listed as QWVLTAAHCLKKNSQ [Peptide 68.0004] has a reported IC50 of > 20 µM

The sequence listed as KIGMIDDVTPISWTY [Peptide 90.0087] has a reported IC50 of 8.37 µM

* * *

# ASSAYED TARGET: DRB1*1101 (Homo sapiens, UniProt P01903+P01911, A100R/A169T/A87E/I96F/K41T/L162R/M171V/P40S/Q125H/Q178H/Q39Y/Q99D/R42S/S66Y/T262R/V115G/W38E)
# Sequence (P01903 26-254 limits assumed, other chains not shown): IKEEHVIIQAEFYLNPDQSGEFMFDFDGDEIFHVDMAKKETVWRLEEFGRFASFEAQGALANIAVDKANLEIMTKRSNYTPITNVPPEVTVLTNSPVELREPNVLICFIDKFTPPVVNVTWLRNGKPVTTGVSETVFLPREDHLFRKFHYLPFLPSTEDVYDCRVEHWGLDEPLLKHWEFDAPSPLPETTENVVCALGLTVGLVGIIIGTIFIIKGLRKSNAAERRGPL
# TEST METHOD NOTES: biochemical
# CONDITION DESCRIPTION: Binding affinity DRB1 *1101
pIC50: −log10 of the molar value.
Reported pIC50 is given for each of the following compounds.

Consider the following illustrative entries.
# COMPOUND, OBSERVABLE, VALUE OBSERVED
measured = [
    ("CC[C@H](C)[C@H](NC(=O)CNC(=O)[C@@H](NC(=O)[C@H](CCCCN)NC(=O)[C@H](CCC(=O)O)NC(=O)[C@H](CC(N)=O)NC(=O)CNC(=O)[C@H](C)N)[C@@H](C)O)C(=O)N[C@@H](CC(C)C)C(=O)N[C@H](C(=O)N[C@H](C(=O)N[C@H](C(=O)N[C@@H](Cc1ccc(O)cc1)C(=O)N[C@@H](Cc1c[nH]cn1)C(=O)N[C@@H](CO)C(=O)O)[C@@H](C)O)C(C)C)[C@@H](C)O [Peptide 1601.18]", "pIC50", "< 4.70"),
    ("CC(C)C[C@H](NC(=O)[C@H](CCC(=O)O)NC(=O)[C@H](CCCCN)NC(=O)[C@H](C)NC(=O)[C@H](CC(C)C)NC(=O)[C@@H](NC(=O)[C@H](CO)NC(=O)[C@H](CCCNC(=N)N)NC(=O)[C@@H](N)CC(=O)O)C(C)C)C(=O)N[C@@H](CCCCN)C(=O)N[C@@H](Cc1ccccc1)C(=O)N[C@H](C(=O)N[C@H](C(=O)N[C@@H](CC(C)C)C(=O)N[C@H](C(=O)O)C(C)C)[C@@H](C)O)C(C)C [Peptide 68.0024]", "pIC50", "< 4.70"),
]

The compound listed as CC[C@H](C)[C@H](NC(=O)CNC(=O)[C@H](CCC(=O)O)NC(=O)[C@H](Cc1c[nH]cn1)NC(=O)[C@@H](NC(=O)[C@H](Cc1ccc(O)cc1)NC(=O)[C@H](Cc1ccc(O)cc1)NC(=O)[C@H](CC(C)C)NC(=O)CN)C(C)C)C(=O)N[C@@H](CCCNC(=N)N)C(=O)N[C@H](C(=O)N[C@@H](Cc1ccc(O)cc1)C(=O)N[C@@H](Cc1ccccc1)C(=O)N[C@H](C(=O)N[C@@H](CCC(N)=O)C(=O)O)C(C)C)[C@@H](C)O [Peptide 90.0171] has a reported pIC50 of 5.27

* * *

Reported log10 of IC50 is given for each of the following sequences.
# ASSAYED TARGET: HLA-A11 (A*1101) (Homo sapiens, UniProt P04439, A114D/D185E/E176A/F33Y/L180Q/S129P/T187R)
# TEST METHOD NOTES: biochemical
# Type: binding
No end group written: not given here.
A difference of one corresponds to tenfold IC50; all values are log10 with IC50 in nM.

Consider the following illustrative entries.
# BIOPOLYMER SEQUENCE, ASSAYED TARGET, log10 of IC50
rows = [
    ("QVNCKGIYY [Peptide 88.0408]", "HLA-A11 (A*1101) (Homo sapiens, UniProt P04439, A114D/D185E/E176A/F33Y/L180Q/S129P/T187R)", 3.21),
    ("EFMSFLTALK [Peptide 1587.10]", "HLA-A11 (A*1101) (Homo sapiens, UniProt P04439, A114D/D185E/E176A/F33Y/L180Q/S129P/T187R)", 2.83),
    ("RVLQGLPREK [Peptide 9012.0238]", "HLA-A11 (A*1101) (Homo sapiens, UniProt P04439, A114D/D185E/E176A/F33Y/L180Q/S129P/T187R)", 1.54),
    ("SQIEHWKLIR [Peptide 88.0213]", "HLA-A11 (A*1101) (Homo sapiens, UniProt P04439, A114D/D185E/E176A/F33Y/L180Q/S129P/T187R)", 1.93),
]

The sequence listed as KIDWLIKRIR [Peptide 9017.0248] has a reported log10 of IC50 of 3.94

The sequence listed as SLARRHIAR [Peptide 9017.0067] has a reported log10 of IC50 of 3.04
